# Test system: BDF1 mice, P388 leukemia ip, median survival T/C
# testDescription: NCI In Vivo Anticancer Drug Screen. Data for tumor model P388 Leukemia (intraperitoneal) in B6D2F1 (BDF1) mice
# conditionsUsed: endpoint: median survival time; dose: 400.0 mg/kg/injection; schedule: Q04DX003 (ip); vehicle: Klucel (hydroxypropylcellulose) (HPC); higher = longer survival
Toxic doses and inconclusive results are not listed.
valueType: T/C

# example entries with known answers
What does the record list as T/C for CCCCCCCCC(=O)CCC ? 87 % of control

Please look up its T/C: Cc1ccc(NCCN2CCCCC2)c2c(=O)c3ccccc3sc12 122 % of control

I'd like to know its T/C. The molecule in question is COC(=O)C/C(=C\c1ccc(OC)c(OC)c1)C(=O)OC 100 % of control

Item O=C(NNc1ccc([N+](=O)[O-])cc1)c1ccccc1 has what recorded T/C? 95 % of control

Need T/C, item N#CC(=C1C=CC(=NO)C=C1)c1ccc(Cl)cc1 113 % of control

What does the data say about its T/C? Entry: OCc1cc2ccccc2cc1O 104 % of control

Data request, read-out T/C, for COc1ccc(C(=O)c2ccccc2)cc1OC 100 % of control

---
If you can, please state the reported T/C value of ClC1=C(Br)C(Br)(Br)C(=C(Br)Br)C1(Br)Br . 100 % of control
